Target: Ubiquitin carboxyl-terminal hydrolase 1 (Homo sapiens)
Assay: Inhibitors of USP1/UAF1: Pilot qHTS (AID 504865); further: nearly all actives have a fitted effect of over 35% in size
Settings: purified USP1/UAF1, Ub-rhodamine cleavage fluorescence; series mostly up to 114 µM
Results filed as inconclusive are left out. Activity calls are given as the source filed them. The call rests on the fitted dose curve; in most records, active means well fitted inhibition curve with a large enough effect; inconclusive means small, poorly fitted or top-dose-only effect; inactive means flat fitted curve, though single readings scatter. Peptide text beside a SMILES is read from it.
Result category, one only: Y = active, N = inactive

(Q) Please share the test call associated with "Nc1ncnc2c1ncn2[C@@H]1O[C@H](COP(=O)(O)OP(=O)(O)OP(=O)(O)O)[C@@H](O)[C@H]1O" .
(A) N

(Q) Please share the test call associated with "O=S(=O)(O)O" .
(A) N

(Q) Please share the test call associated with "O=C(O)c1cc(O)c2c(c1)[O][Bi][O]2" .
(A) N

(Q) Please share the test call associated with "O=S(=O)(O)c1ccc2c(N=Nc3ccc(S(=O)(=O)O)c4ccccc34)c(O)c(S(=O)(=O)O)cc2c1" .
(A) Y

(Q) Please share the test call associated with "COc1ccc2c3c1O[C@H]1C[C@@H](O)C=C[C@@]31CCN(C)C2" .
(A) N

(Q) Please share the test call associated with NC1C2CN(c3nc4c(cc3F)c(=O)c(C(=O)O)cn4-c3ccc(F)cc3F)CC12 (stereo unspecified) .
(A) N

(Q) Please share the test call associated with "CC(C)(C)C(=O)OCOC(=O)[C@@H]1N2C(=O)[C@@H](N=CN3CCCCCC3)[C@H]2SC1(C)C" .
(A) N

(Q) Please share the test call associated with "Clc1cc(Cl)c(OCC#CI)cc1Cl" .
(A) N

(Q) Please share the test call associated with "CCN(CC)Cc1cc(Nc2ccnc3cc(Cl)ccc23)ccc1O" .
(A) N

(Q) Please share the test call associated with CCCC(=O)Nc1ncnc2c1ncn2C1OC2COP(=O)(O)OC2C1OC(=O)CCC (stereo unspecified) .
(A) N

(Q) Please share the test call associated with "CCCCCCCCCCCCCC[n+]1ccc(C)cc1" .
(A) Y

(Q) Please share the test call associated with "Cc1cn([C@H]2C[C@H](O)[C@@H](CO)O2)c(=O)[nH]c1=O" .
(A) N

(Q) Please share the test call associated with "COC(F)(F)C(Cl)Cl" .
(A) N

(Q) Please share the test call associated with CC1(C)C(C=C(Cl)Cl)C1C(=O)OCc1cccc(Oc2ccccc2)c1 (stereo unspecified) .
(A) N

(Q) Please share the test call associated with "CC(=O)Oc1cc(C)c(OC(C)=O)c2ccccc12" .
(A) N

(Q) Please share the test call associated with "CCCCCCCC/C=C\CCCCCCCC(=O)O" .
(A) Y

(Q) Please share the test call associated with "CCCC(=O)Nc1ncnc2c1ncn2[C@@H]1O[C@@H]2COP(=O)(O)O[C@H]2[C@H]1OC(=O)CCC" .
(A) N

(Q) Please share the test call associated with CC(=O)N[C@@H](CC(=O)O)C(=O)N[C@@H](CCC(=O)O)C(=O)O (Ac-Asp-Glu-OH) .
(A) N

(Q) Please share the test call associated with "CC1(C)S[C@@H]2[C@H](NC(=O)[C@@H](NC(=O)N3CCNC3=O)c3ccccc3)C(=O)N2[C@H]1C(=O)O" .
(A) N

(Q) Please share the test call associated with "OCc1ccccc1O[C@@H]1O[C@H](CO)[C@@H](O)[C@H](O)[C@H]1O" .
(A) N

(Q) Please share the test call associated with Nc1c(Br)cc(Br)cc1CNC1CCC(O)CC1 (stereo unspecified) .
(A) N

(Q) Please share the test call associated with "O=S(=O)(O)c1cc(O)c2c(N=Nc3ccc(Nc4ccccc4)c4c(S(=O)(=O)O)cccc34)cc(S(=O)(=O)O)cc2c1" .
(A) Y

(Q) Please share the test call associated with NC(=O)c1ncn(C2OC(CO)C(O)C2O)n1 (stereo unspecified) .
(A) N

(Q) Please share the test call associated with "O=C(O)CCC(=O)C(=O)O" .
(A) N

(Q) Please share the test call associated with "COCC(=O)Nc1cc(Sc2ccccc2)ccc1N=C(NC(=O)OC)NC(=O)OC" .
(A) N

(Q) Please share the test call associated with "CC1(C)S[C@@H]2[C@H](NC(=O)Cc3ccccc3)C(=O)N2[C@H]1C(=O)O" .
(A) N

(Q) Please share the test call associated with "O=C(O)CN(CCN(CC(=O)O)CC(=O)O)CC(=O)O" .
(A) N

(Q) Please share the test call associated with "O=C(O)CC/C=C\CC[C@H]1[C@@H](N2CCCCC2)[C@@H](O)C[C@@H]1OCc1ccc(-c2ccccc2)cc1" .
(A) N

(Q) Please share the test call associated with "CCOC(C)=O" .
(A) N

(Q) Please share the test call associated with CC(O)CO (stereo unspecified) .
(A) N

(Q) Please share the test call associated with CC(=O)Oc1c(C)cc(OCC(O)CNC(C)C)c(C)c1C (stereo unspecified) .
(A) N

----------
Task for the reader: assign each of the following compounds its reported activity, negative = cell killing.
Test: Drug repurposing screens with cells derived from glioblastoma tumor samples (AID 1345199); further: on the % scale 0 is the no-effect control and ±100 the full control effect; nearly all actives have a fitted effect of over 40% in size
Conditions: GBM patient neurospheres viability, ATP luminescence, 48 h; at 46 µM (top of the series); tumour line A
Records with an inconclusive call do not appear. Where a SMILES comes first, the peptide text is derived from it. Bridges are numbered along the chain shown (N, C = ends). [ ]: non-standard residue; d: D form. The star is where a group is joined. Dab(CH2SO3H) = N[C@@H](CCNCS(=O)(=O)O)C(=O)O; X3 = CC[C@@H](C)CCCCC(=O)*; Dab = NCC[C@H](N)C(=O)O
Response body: numeric value in %, unit text excluded.

(Q) Would you mind telling me what activity, negative = cell killing value was observed for "C[C@]12CCC(=O)C=C1CC[C@@H]1[C@@H]2[C@@H](O)C[C@@]2(C)[C@H]1CC[C@]2(O)C(=O)COP(=O)(O)O" ?
(A) -14

(Q) Would you mind telling me what activity, negative = cell killing value was observed for "Nc1ncnc2c1ncn2[C@@H]1O[C@H](COP(=O)(O)OP(=O)(O)OP(=O)(O)O)[C@@H](O)[C@H]1O" ?
(A) -1.48

(Q) Would you mind telling me what activity, negative = cell killing value was observed for CC[C@@H](C)CCCCC(=O)N[C@@H](CCNCS(=O)(=O)O)C(=O)N[C@H](C(=O)N[C@@H](CCNCS(=O)(=O)O)C(=O)N[C@H]1CCNC(=O)[C@H]([C@@H](C)O)NC(=O)[C@H](CCNCS(=O)(=O)O)NC(=O)[C@H](CCNCS(=O)(=O)O)NC(=O)[C@H](CC(C)C)NC(=O)[C@@H](CC(C)C)NC(=O)[C@H](CCNCS(=O)(=O)O)NC1=O)[C@@H](C)O (X3-[Dab(CH2SO3H)]T[Dab(CH2SO3H)][Dab][Dab(CH2SO3H)][dL]L[Dab(CH2SO3H)][Dab(CH2SO3H)]T; lactam 4-C) ?
(A) -16.2

(Q) Would you mind telling me what activity, negative = cell killing value was observed for "CC1(C)S[C@@H]2[C@H](NC(=O)Cc3ccccc3)C(=O)N2[C@H]1C(=O)O" ?
(A) -18.5

(Q) Would you mind telling me what activity, negative = cell killing value was observed for "C[C@H]1C[C@H]2[C@@H]3CCC4=CC(=O)C=C[C@]4(C)[C@@]3(F)[C@@H](O)C[C@]2(C)[C@@]1(O)C(=O)CO" ?
(A) -24.5

(Q) Would you mind telling me what activity, negative = cell killing value was observed for "OC[C@H]1O[C@@H](OCCc2ccc(O)cc2)[C@H](O)[C@@H](O)[C@@H]1O" ?
(A) -5.89

(Q) Would you mind telling me what activity, negative = cell killing value was observed for "O=C(O)c1cc(=O)c2c3nc4ccccc4oc-3cc(=O)c2[nH]1" ?
(A) -20.9

(Q) Would you mind telling me what activity, negative = cell killing value was observed for "IC(I)I" ?
(A) -9.65

(Q) Would you mind telling me what activity, negative = cell killing value was observed for "Nc1ccn([C@H]2CS[C@@H](CO)O2)c(=O)n1" ?
(A) -14.1

(Q) Would you mind telling me what activity, negative = cell killing value was observed for "CC(=O)OCC(=O)[C@@]1(O)CC[C@H]2[C@@H]3C[C@H](C)C4=CC(=O)C=C[C@]4(C)[C@H]3[C@@H](O)C[C@@]21C" ?
(A) -15.4

(Q) Would you mind telling me what activity, negative = cell killing value was observed for "O=S(=O)(O)O" ?
(A) -0.209

----------
Tested on: C2A
Assay: qHTS profiling for inhibitors of Plasmodium falciparum proliferation (AID 504749); further: nearly all actives have a fitted effect of over 60% in size
Settings: P. falciparum in erythrocytes, SYBR Green DNA, 72 h; series mostly up to 28.7 µM
Records with an inconclusive call do not appear. Active and inactive are the calls of the source. The call rests on the fitted dose curve; in most records, active means well fitted inhibition curve with a large enough effect; inconclusive means small, poorly fitted or top-dose-only effect; inactive means flat fitted curve, though single readings scatter.
Result category, one only: active, inactive

(Q) Please share the test call associated with "COC(=O)[C@H]1[C@H]2C[C@@H]3c4[nH]c5ccccc5c4CCN3C[C@H]2C[C@@H](OC(=O)c2cc(OC)c(OC)c(OC)c2)[C@@H]1OC" .
(A) active

(Q) Please share the test call associated with "CCOc1ccc2c(c1)C(C)=CC(C)(C)N2" .
(A) inactive

(Q) Please share the test call associated with "COCC(=O)Nc1cc(Sc2ccccc2)ccc1N=C(NC(=O)OC)NC(=O)OC" .
(A) inactive

(Q) Please share the test call associated with "CCCCCCCCCCCCCCCC(=O)OCC(COC(=O)CCCCCCCCCCCCCCC)OC(=O)CCCCCCCCCCCCCCC" .
(A) inactive

(Q) Please share the test call associated with "CC[C@@]1(O)C(=O)OCc2c1cc1n(c2=O)Cc2cc3c([N+](=O)[O-])cccc3nc2-1" .
(A) active

(Q) Please share the test call associated with "CC1=C(/C=C/C(C)=C/C=C/C(C)=C/C=C/C=C(C)/C=C/C=C(C)/C=C/C2=C(C)C(=O)CCC2(C)C)C(C)(C)CCC1=O" .
(A) inactive

(Q) Please share the test call associated with "O=S(=O)(O)c1ccc2c(N=Nc3ccc(S(=O)(=O)O)c4ccccc34)c(O)c(S(=O)(=O)O)cc2c1" .
(A) inactive

(Q) Please share the test call associated with CC1(C)C(C=C(Cl)Cl)C1C(=O)OCc1cccc(Oc2ccccc2)c1 (stereo not drawn) .
(A) inactive
